Origin of the recorded values: patent US20140107021A1

- test-system: GIP receptor (Homo sapiens)
- Construct: expressed in transfected cells; host or cells: HEK293
- Sequence (P48546 22-466): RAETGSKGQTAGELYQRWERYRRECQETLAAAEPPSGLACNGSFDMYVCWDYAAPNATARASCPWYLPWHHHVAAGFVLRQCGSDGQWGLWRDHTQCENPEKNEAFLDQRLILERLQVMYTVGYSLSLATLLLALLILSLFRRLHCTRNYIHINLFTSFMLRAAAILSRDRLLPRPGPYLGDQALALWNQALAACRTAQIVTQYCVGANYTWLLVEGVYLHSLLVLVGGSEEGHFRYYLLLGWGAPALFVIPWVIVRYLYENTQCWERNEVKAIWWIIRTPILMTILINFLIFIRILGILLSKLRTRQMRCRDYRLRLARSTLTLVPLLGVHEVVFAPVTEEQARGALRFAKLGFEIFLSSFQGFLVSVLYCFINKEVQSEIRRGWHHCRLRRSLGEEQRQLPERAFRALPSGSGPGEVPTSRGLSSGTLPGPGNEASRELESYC
- experimental-protocol: cAMP induction at the GIP receptor (agonist activity), luciferase reporter assay in HEK293 cells
- Assay type: cell-based
- cond: Table 5; relative to standard
Bridge positions count the residues as written; N and C are the ends. Square brackets hold non-standard residues; d marks the D form. Side chains are listed from the residue outwards. Ends that are not written are not given here. PEG40kDa = 40 kDa polyethylene glycol; Ac‑Cys = acetylated cysteine; Aib = CC(C)(N)C(=O)O
assay-endpoint: GIPR relative activity (%)

substance	assay-endpoint	test-value
mt-218: as mt-217 with Glu as the amino acid spacer; SEQ ID NO: 20 (Y[Aib]QGTFTSDYSIYLDEQAAKEFVK([Glu-Ac‑Cys-PEG40kDa])FLLAGGPSSGAPPPS-NH2; lactam 16-20)	GIPR relative activity	0.13
mt-227: as mt-219 but modified Lys at position 40 and Asn at position 24; SEQ ID NO: 360 (Y[Aib]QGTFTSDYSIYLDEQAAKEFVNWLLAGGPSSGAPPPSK([Arg-Ac‑Cys-PEG40kDa])-NH2; lactam 16-20)	GIPR relative activity	1.29

---

- test-system: glucagon receptor (Homo sapiens)
- Sequence (P47871 26-477): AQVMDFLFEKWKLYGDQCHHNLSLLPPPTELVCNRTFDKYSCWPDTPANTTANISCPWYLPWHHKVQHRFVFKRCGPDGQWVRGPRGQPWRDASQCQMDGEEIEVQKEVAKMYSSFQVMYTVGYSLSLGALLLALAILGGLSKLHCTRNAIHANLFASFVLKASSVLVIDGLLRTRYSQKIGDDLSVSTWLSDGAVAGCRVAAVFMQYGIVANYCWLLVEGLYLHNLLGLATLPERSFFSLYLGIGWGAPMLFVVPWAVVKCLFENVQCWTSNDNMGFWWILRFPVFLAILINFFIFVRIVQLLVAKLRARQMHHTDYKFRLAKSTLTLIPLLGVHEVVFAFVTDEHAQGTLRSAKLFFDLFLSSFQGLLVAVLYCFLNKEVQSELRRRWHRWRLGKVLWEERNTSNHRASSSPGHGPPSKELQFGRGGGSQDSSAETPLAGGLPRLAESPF
- experimental-protocol: glucagon receptor binding
- Parameters: expressed in transfected cells; host or cells: HEK293
- cond: Table L; read-out: IC50(nM) (Receptor binding)
Square brackets hold non-standard residues; d marks the D form. Side chains are listed from the residue outwards. Ends that are not written are not given here.
assay-endpoint: IC50

In [3]: df
Out[3]:
                                  substance  test_value
0  [C8(20 kDaPEG), E9]Glucagon(aa6-29)-NH2 (FTC(PEG 20 kDa)EYSKYLDSRRAQDFVQWLMNT-NH2)   > 1000 nM
1  [d-Cys5(20 kDaPEG, E9]Glucagon(aa5-29)-NH2 ([dC](PEG 20 kDa)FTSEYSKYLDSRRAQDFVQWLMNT-NH2)  > 10000 nM
2  [K5(CH2CH2S-20 kDaPEG), E9]Glucagon(aa5-29)-NH2 (K([CH2CH2S-PEG 20 kDa])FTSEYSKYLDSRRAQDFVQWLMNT-NH2)  > 10000 nM
3  [E9, C11(20 kDaPEG)]Glucagon(aa6-29)-NH2 (FTSEYC(PEG 20 kDa)KYLDSRRAQDFVQWLMNT-NH2)   > 1000 nM
4  [E9, C24(20 kDaPEG)]Glucagon(aa6-29)-NH2 (FTSEYSKYLDSRRAQDFVC(PEG 20 kDa)WLMNT-NH2; not fully specified (residue 1))   > 1000 nM
5  [Phe6, E9, C24(20 kDaPEG)]Glucagon aa6-29)-NH2 (FTSEYSKYLDSRRAQDFVC(PEG20kDa)WLMNT-NH2)  > 10000 nM
